FYI, the data here is from ChEMBL document CHEMBL4689842.

Listed next: entries and their corresponding Population Mitotic Cells (%).
Test system: U2OS
Experiment: Multiplex assay against U2OS
Type: toxicity, cell-based
Settings: human, 12 h, 1 µM, compound concentration 1 uM, replicate 2

{"columns": ["compound", "tgt", "Population Mitotic Cells (%)"],
 "data": [
  ["c1ccc2oc(-c3csc(C4CCN(Cc5nc6ncccc6[nH]5)CC4)n3)cc2c1", "U2OS", 75],
  ["COc1cc2c(NC3CCN(C(C)C)CC3)nc(N3CCC(F)(F)CC3)nc2cc1OCCCN1CCCC1", "U2OS", 70],
  ["Cc1nc(Cc2cccc(C(F)(F)F)c2)sc1-c1ccc(C(N)=O)nc1 [TP-024n]", "U2OS", 50],
  ["CNc1oc(-c2cccc3ccccc23)nc1C#N", "U2OS", 100],
  ["CNC(=O)c1cc(Oc2ccc(NC(=O)Nc3cc(C(C)(C)C)nn3-c3ccc4ncccc4c3)c(F)c2)ccn1", "U2OS", 100],
  ["Nc1ccc(C(=O)Nc2cccc(-c3nc(N4CCOCC4)c4oc5ncccc5c4n3)c2)cn1", "U2OS", 90],
  ["CCOc1cc2ncc(C#N)c(Nc3ccc(OCc4cccc(F)c4)c(Cl)c3)c2cc1NC(=O)/C=C/CN(C)C", "U2OS", 75],
  ["Cl.Cl.Nc1ncnc2c1c(-c1cccc(OCc3ccccc3)c1)cn2[C@H]1C[C@@H](CN2CCC2)C1", "U2OS", 70],
  ["Nc1nc2c(c(N3CCNCC3)n1)CCC1=C2[C@@H]2CCCC[C@@H]2O1", "U2OS", 100],
  ["CN(C)CCOc1ccc(-c2nc(-c3ccncc3)c(-c3ccc4c(c3)CC/C4=N\\O)[nH]2)cc1", "U2OS", 11],
  ["Cc1cc2c(cc1N1C(=O)c3cccc4c(CCCO)ccc(c34)C1=O)n(C)c(=O)n2C", "U2OS", 100],
  ["Cc1cn(-c2cc(NC(=O)c3ccc4c(c3)CN(c3cncnc3)C[C@@H]4C)cc(C(F)(F)F)c2)cn1", "U2OS", 100],
  ["COc1cc2c(Nc3ccc(NC(=O)c4ccccc4)cc3)ncnc2cc1OCCCN1CCOCC1", "U2OS", 100],
  ["CNC(=O)c1nn(C)c2c1C(C)(C)Cc1cnc(Nc3ccc(N4CCN(C)CC4)cc3)nc1-2", "U2OS", 41],
  ["CCC(=O)O[C@]1(C(=O)SCF)[C@H](C)C[C@H]2[C@@H]3C[C@H](F)C4=CC(=O)C=C[C@]4(C)[C@@]3(F)[C@@H](O)C[C@@]21C [FLUTICASONE PROPIONATE]", "U2OS", 28],
  ["CCc1cc2c(cc1CC)CC(NC[C@H](O)c1ccc(O)c3[nH]c(=O)ccc13)C2", "U2OS", 66],
  ["Cl.Cl.NC1(c2ccc(-c3nc4ccn5c(=O)[nH]nc5c4cc3-c3ccccc3)cc2)CCC1", "U2OS", 50]
]}

* * *

Test system: Fibroblast
Assay: Multiplex assay against human fibroblast
Format: toxicity, cell-based
Settings: 24 h, 10 µM, compound concentration 10 uM, replicate 2
So basically: is Population Pyknosed Nuclei (%) under 10%? Then Y. Not under? Then N.

{"columns": ["compound", "tgt", "classLabel"],
 "data": [
  ["Cl.Cl.NC1(c2ccc(-c3nc4ccn5c(=O)[nH]nc5c4cc3-c3ccccc3)cc2)CCC1", "Fibroblast", "N"],
  ["CCOc1cc(N2CCC(O)CC2)ccc1Nc1ncc2c(n1)N(C1CCCC1)CCC(=O)N2C", "Fibroblast", "Y"],
  ["CNC(=O)c1cc(Oc2ccc(NC(=O)Nc3cc(C(C)(C)C)nn3-c3ccc4ncccc4c3)c(F)c2)ccn1 [REBASTINIB]", "Fibroblast", "N"],
  ["CC(=O)c1cc(-c2cc(C(=O)NC3CC3)ccc2C)c2ncccn12", "Fibroblast", "N"],
  ["CN(C)CCOc1ccc(-c2nc(-c3ccncc3)c(-c3ccc4c(c3)CC/C4=N\\O)[nH]2)cc1 [SB590885]", "Fibroblast", "Y"],
  ["CC(C)N1CCC(C)(C)c2cc(C#Cc3ccc(C(=O)O)cc3)ccc21", "Fibroblast", "Y"]
]}

* * *

System: HEK-293T
Assay: Multiplex assay against HEK293T
Assay type: toxicity, cell-based
Details: human, 24 h, 1 µM, compound concentration 1 uM, replicate 1
observable: Population Mitotic Cells (%)

{"columns": ["compound", "reported"],
 "data": [
  ["CCOc1cc(N2CCC(O)CC2)ccc1Nc1ncc2c(n1)N(C1CCCC1)CCC(=O)N2C", 80],
  ["CN(C)CCOc1ccc(-c2nc(-c3ccncc3)c(-c3ccc4c(c3)CC/C4=N\\O)[nH]2)cc1 [SB590885]", 75],
  ["Nc1ccc(C(=O)Nc2cccc(-c3nc(N4CCOCC4)c4oc5ncccc5c4n3)c2)cn1", 35],
  ["CNC(=O)c1cc(Oc2ccc(NC(=O)Nc3cc(C(C)(C)C)nn3-c3ccc4ncccc4c3)c(F)c2)ccn1 [REBASTINIB]", 86],
  ["CCC(=O)O[C@]1(C(=O)SCF)[C@H](C)C[C@H]2[C@@H]3C[C@H](F)C4=CC(=O)C=C[C@]4(C)[C@@]3(F)[C@@H](O)C[C@@]21C [FLUTICASONE PROPIONATE]", 40],
  ["Cc1nc(Cc2cccc(C(F)(F)F)c2)sc1-c1ccc(C(N)=O)nc1 [TP-024n]", 50],
  ["Cl.Cl.Nc1ncnc2c1c(-c1cccc(OCc3ccccc3)c1)cn2[C@H]1C[C@@H](CN2CCC2)C1", 29],
  ["COc1ccc(NS(=O)(=O)c2sc3ccc(Cl)cc3c2C)cc1N1CCNCC1.Cl", 53]
]}

* * *

Listed next: entries and their corresponding Population Membrane Permeable-Phenotype (%).
System: U2OS
Assay: Multiplex assay against U2OS
Assay type: toxicity, cell-based
Details: human, 24 h, 10 µM, compound concentration 10 uM, replicate 1
observable: Population Membrane Permeable-Phenotype (%)

{"columns": ["compound", "tgt", "reported"],
 "data": [
  ["CCC(=O)O[C@]1(C(=O)SCF)[C@H](C)C[C@H]2[C@@H]3C[C@H](F)C4=CC(=O)C=C[C@]4(C)[C@@]3(F)[C@@H](O)C[C@@]21C [FLUTICASONE PROPIONATE]", "U2OS", 43],
  ["Cc1cc2c(cc1N1C(=O)c3cccc4c(CCCO)ccc(c34)C1=O)n(C)c(=O)n2C", "U2OS", 5],
  ["CN(C)CCOc1ccc(-c2nc(-c3ccncc3)c(-c3ccc4c(c3)CC/C4=N\\O)[nH]2)cc1", "U2OS", 12],
  ["Nc1nc2c(c(N3CCNCC3)n1)CCC1=C2[C@@H]2CCCC[C@@H]2O1", "U2OS", 16],
  ["CC(C)N1CCC(C)(C)c2cc(C#Cc3ccc(C(=O)O)cc3)ccc21", "U2OS", 4],
  ["N#Cc1cnc(Nc2cc(NC[C@H]3CNCCO3)c(C(F)(F)F)cn2)cn1", "U2OS", 8],
  ["CCc1cc2c(cc1CC)CC(NC[C@H](O)c1ccc(O)c3[nH]c(=O)ccc13)C2", "U2OS", 50],
  ["Cl.Cl.Nc1ncnc2c1c(-c1cccc(OCc3ccccc3)c1)cn2[C@H]1C[C@@H](CN2CCC2)C1", "U2OS", 92],
  ["COc1ccc(NS(=O)(=O)c2sc3ccc(Cl)cc3c2C)cc1N1CCNCC1.Cl", "U2OS", 35]
]}

* * *

Listed next: entries and their corresponding Population Mitotic Cells (%).
System: Fibroblast
Assay: Multiplex assay against human fibroblast
Format: toxicity, cell-based
Details: 24 h, 10 µM, compound concentration 10 uM, replicate 1

{"columns": ["compound", "Population Mitotic Cells (%)"],
 "data": [
  ["Cl.Cl.NC1(c2ccc(-c3nc4ccn5c(=O)[nH]nc5c4cc3-c3ccccc3)cc2)CCC1", "75%"],
  ["CNc1oc(-c2cccc3ccccc23)nc1C#N", "6%"],
  ["COc1ccc(NS(=O)(=O)c2sc3ccc(Cl)cc3c2C)cc1N1CCNCC1.Cl", "27%"],
  ["CC(C)N1CCC(C)(C)c2cc(C#Cc3ccc(C(=O)O)cc3)ccc21", "27%"],
  ["CCc1cc2c(cc1CC)CC(NC[C@H](O)c1ccc(O)c3[nH]c(=O)ccc13)C2 [INDACATEROL]", "28%"],
  ["Nc1ccc(C(=O)Nc2cccc(-c3nc(N4CCOCC4)c4oc5ncccc5c4n3)c2)cn1", "31%"],
  ["COc1cc2c(NC3CCN(C(C)C)CC3)nc(N3CCC(F)(F)CC3)nc2cc1OCCCN1CCCC1", "36%"],
  ["CN(C)C/C=C/C(=O)Nc1cc2c(Nc3ccc(F)c(Cl)c3)ncnc2cc1O[C@H]1CCOC1.O=C(O)/C=C\\C(=O)O.O=C(O)/C=C\\C(=O)O [AFATINIB DIMALEATE]", "42%"],
  ["Nc1nc2c(c(N3CCNCC3)n1)CCC1=C2[C@@H]2CCCC[C@@H]2O1", "42%"],
  ["O=C(O)c1ccc2cc(-c3ccc(O)c(C45CC6CC(CC(C6)C4)C5)c3)ccc2c1 [O-DEMETHYLATED ADAPALENE]", "42%"],
  ["CC(=O)c1cc(-c2cc(C(=O)NC3CC3)ccc2C)c2ncccn12", "42%"],
  ["Cc1cc2c(cc1N1C(=O)c3cccc4c(CCCO)ccc(c34)C1=O)n(C)c(=O)n2C", "41%"],
  ["CC(C)(C)c1cnc(CSc2cnc(NC(=O)C3CCNCC3)s2)o1 [BMS-387032]", "34%"],
  ["Cl.Cl.Nc1ncnc2c1c(-c1cccc(OCc3ccccc3)c1)cn2[C@H]1C[C@@H](CN2CCC2)C1", "15%"],
  ["Cc1nc(Cc2cccc(C(F)(F)F)c2)sc1-c1ccc(C(N)=O)nc1 [TP-024n]", "35%"],
  ["CCCn1c(=O)c2[nH]c(C34CC5CC(CC3C5)C4)nc2n(CCC)c1=O [ROLOFYLLINE]", "63%"],
  ["CCn1c(-c2nonc2N)nc2cnc(Oc3cccc(NC(=O)c4ccc(OCCN5CCOCC5)cc4)c3)cc21 [GSK-269962A]", "42%"],
  ["O=C(O)c1ccc2c(c1)nc(Nc1cccc(Cl)c1)c1ccncc12 [SILMITASERTIB]", "46%"]
]}
